Value source: ChEMBL document CHEMBL4765233

assay: Toxicity in SCID mouse xenografted with MDA-MB-231 cells assessed as animal death at 20 mg/kg, po qd for 15 days; format: organism-based; conditions: in vivo, dose 20 mg/kg/day, time 15 day, read-out: Activity
measured-metric: mortality at 360 h (%)
Your answer should be a plain number; it is taken to be in %.

>>> df
                           molecular_string     measured_metric  unit_descriptor  observed_result
0  Cc1ccc(NC(=O)c2cccc(C(F)(F)F)c2)cc1C#Cc1nn([C@H]2CC[C@H](O)CC2)c2ncnc(N)c12  mortality at 360 h                %                0

Next item in the queue.
Enquiry: Entry under review: Cc1ccc(NC(=O)c2cccc(C(F)(F)F)c2)cc1C#Cc1nn([C@H]2CC[C@@H](O)CC2)c2ncnc(N)c12 . Reported mortality at 360 h?
Return: 0

###

biological target: Ephrin type-A receptor 7 (Homo sapiens, UniProt Q15375); experiment: Inhibition of human recombinant EPHA7 (613 to 909 residues) using KTFCGTPEYLAPEVRREPRILSEEEQEMFRDFDYIADWC incubated for 40 mins in presence of [gamma33P-ATP] by radiometric scintillation counting analysis
Sequence (Q15375 whole entry, the tested form may be a part): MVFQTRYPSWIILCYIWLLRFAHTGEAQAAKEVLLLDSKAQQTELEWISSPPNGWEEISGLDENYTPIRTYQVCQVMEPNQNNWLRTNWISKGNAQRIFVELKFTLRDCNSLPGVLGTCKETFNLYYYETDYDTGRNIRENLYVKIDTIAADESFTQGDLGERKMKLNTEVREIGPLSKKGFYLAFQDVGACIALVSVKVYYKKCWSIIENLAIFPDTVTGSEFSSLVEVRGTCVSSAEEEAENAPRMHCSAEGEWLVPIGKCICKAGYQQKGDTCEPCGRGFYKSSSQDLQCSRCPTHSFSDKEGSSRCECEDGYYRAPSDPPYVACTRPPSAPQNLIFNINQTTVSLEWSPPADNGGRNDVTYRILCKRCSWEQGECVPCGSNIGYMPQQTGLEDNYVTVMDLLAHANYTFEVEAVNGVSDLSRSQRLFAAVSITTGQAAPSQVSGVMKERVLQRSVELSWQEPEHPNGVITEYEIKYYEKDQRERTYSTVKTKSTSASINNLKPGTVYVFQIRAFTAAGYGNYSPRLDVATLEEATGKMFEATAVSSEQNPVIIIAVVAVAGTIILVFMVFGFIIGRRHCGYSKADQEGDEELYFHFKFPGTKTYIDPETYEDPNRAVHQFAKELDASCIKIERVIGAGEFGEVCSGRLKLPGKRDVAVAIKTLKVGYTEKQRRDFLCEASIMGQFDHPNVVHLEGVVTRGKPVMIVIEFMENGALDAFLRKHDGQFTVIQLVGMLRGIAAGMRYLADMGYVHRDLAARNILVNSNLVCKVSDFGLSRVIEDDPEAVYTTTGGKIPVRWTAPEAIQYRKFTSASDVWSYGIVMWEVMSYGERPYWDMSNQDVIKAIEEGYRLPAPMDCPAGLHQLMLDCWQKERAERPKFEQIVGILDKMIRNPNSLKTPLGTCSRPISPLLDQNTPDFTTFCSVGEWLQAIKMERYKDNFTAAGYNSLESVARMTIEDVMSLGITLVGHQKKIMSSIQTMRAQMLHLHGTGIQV
measured-metric: IC50 (nM)
Your answer should be a plain number; it is taken to be in nM.

Enquiry: Entry under review: Cc1ccc(NC(=O)c2ccc(C)c(C(F)(F)F)c2)cc1C#Cc1nn([C@H]2CC[C@H](O)CC2)c2ncnc(N)c12 . Reported IC50?
Return: 143

###

molecular target: Activated CDC42 kinase 1 (Homo sapiens); assay: Inhibition of human recombinant ACK1 (1 to 389 residues) using EFPIYDFLPAKKK as substrate incubated for 40 mins in presence of [gamma33P-ATP] by radiometric scintillation counting analysis
Sequence (Q07912 whole entry, the tested form may be a part): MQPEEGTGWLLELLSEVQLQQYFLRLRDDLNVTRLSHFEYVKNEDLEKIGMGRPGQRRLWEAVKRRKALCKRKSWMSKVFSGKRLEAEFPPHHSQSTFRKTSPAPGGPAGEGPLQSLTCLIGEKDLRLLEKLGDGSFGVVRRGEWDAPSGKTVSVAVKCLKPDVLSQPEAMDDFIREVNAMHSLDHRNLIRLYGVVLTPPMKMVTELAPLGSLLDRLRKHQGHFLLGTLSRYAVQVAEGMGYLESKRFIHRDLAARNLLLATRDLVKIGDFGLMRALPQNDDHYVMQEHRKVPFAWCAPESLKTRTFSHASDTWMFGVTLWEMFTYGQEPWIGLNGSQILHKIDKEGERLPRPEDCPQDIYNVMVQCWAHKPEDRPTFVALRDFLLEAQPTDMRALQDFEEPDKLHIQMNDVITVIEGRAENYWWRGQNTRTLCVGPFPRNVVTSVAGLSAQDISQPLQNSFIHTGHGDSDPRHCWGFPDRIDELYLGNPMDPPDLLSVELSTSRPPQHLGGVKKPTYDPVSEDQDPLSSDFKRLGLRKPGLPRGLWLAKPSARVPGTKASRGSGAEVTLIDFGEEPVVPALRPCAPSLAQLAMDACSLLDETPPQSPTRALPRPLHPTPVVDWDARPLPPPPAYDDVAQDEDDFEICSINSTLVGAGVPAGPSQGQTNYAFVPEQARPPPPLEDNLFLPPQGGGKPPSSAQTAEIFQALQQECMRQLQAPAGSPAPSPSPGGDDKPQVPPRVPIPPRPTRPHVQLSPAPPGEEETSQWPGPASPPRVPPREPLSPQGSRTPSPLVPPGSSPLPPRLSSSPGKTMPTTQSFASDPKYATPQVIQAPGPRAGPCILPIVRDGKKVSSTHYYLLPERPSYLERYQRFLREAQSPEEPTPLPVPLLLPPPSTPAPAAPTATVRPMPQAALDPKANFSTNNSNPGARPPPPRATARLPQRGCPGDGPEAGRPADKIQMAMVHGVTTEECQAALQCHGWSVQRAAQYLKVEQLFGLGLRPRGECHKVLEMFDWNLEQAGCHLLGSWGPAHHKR
measured-metric: pIC50
Scale explanation: pIC50 corresponds to minus log10 of a concentration expressed in moles per litre.

Enquiry: Entry under review: Cc1ccc(NC(=O)c2ccc(C)c(C(F)(F)F)c2)cc1C#Cc1nn([C@H]2CC[C@H](O)CC2)c2ncnc(N)c12 . Reported pIC50?
Return: 6.76

###

biological target: Mitogen-activated protein kinase 14 (Homo sapiens); experiment: Inhibition of human full length recombinant p38alpha using myelin basic protein as substrate incubated for 40 mins in presence of [gamma33P-ATP] by radiometric scintillation counting analysis
Sequence (Q16539 whole entry): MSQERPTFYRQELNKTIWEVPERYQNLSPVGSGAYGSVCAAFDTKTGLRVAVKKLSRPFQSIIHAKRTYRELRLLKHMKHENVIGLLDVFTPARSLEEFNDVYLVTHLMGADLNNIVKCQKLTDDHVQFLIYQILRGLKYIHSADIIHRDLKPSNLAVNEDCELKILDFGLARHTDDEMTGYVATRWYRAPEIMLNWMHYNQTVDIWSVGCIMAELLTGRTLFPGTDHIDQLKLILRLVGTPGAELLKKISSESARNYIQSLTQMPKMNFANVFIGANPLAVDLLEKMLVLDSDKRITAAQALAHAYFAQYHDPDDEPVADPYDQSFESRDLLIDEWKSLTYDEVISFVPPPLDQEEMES
measured-metric: IC50
Answer format: value, then unit.

Enquiry: Entry under review: Cc1ccc(NC(=O)c2ccc(C)c(C(F)(F)F)c2)cc1C#Cc1nn([C@H]2CC[C@H](O)CC2)c2ncnc(N)c12 . Reported IC50?
Return: 342 nM

###

tested on: MDA-MB-231; assay: Antiproliferative activity against human MDA-MB-231 cells assessed as reduction in cell viability incubated for 72 hrs by MTT assay; type: functional, cell-based; settings: MDA-MB-231, 72 h
pIC50 reference
Scale explanation: pIC50 corresponds to minus log10 of a concentration expressed in moles per litre.

Some compounds with known pIC50 results, for comparison:
>>> print(df.to_string())
                                   compound  subject_of_test  measured_metric  observed_result
0  Cc1nc(Nc2ncc(C(=O)Nc3c(C)cccc3Cl)s2)cc(N2CCN(CCO)CC2)n1.O [DASATINIB]       MDA-MB-231            pIC50             6.95
1  Cc1ccc(NC(=O)c2cnc(C(C)(C)C)s2)cc1C#Cc1nn(C2CCN(C)CC2)c2ncnc(N)c12       MDA-MB-231            pIC50             7.11
2  Cc1ccc(NC(=O)c2cccc(C(C)(C)C)c2)cc1C#Cc1nn([C@H]2CC[C@H](O)CC2)c2ncnc(N)c12       MDA-MB-231            pIC50             7.52

Enquiry: Entry under review: CN1CCC(n2nc(C#Cc3cc(NC(=O)c4cccc(C(F)(F)F)c4)ccc3Cl)c3c(N)ncnc32)CC1 . Reported pIC50?
Return: 6.02

###

molecular target: Mitogen-activated protein kinase 1 (Homo sapiens, UniProt P28482); assay: Inhibition of human full length recombinant ERK2 using myelin basic protein as substrate incubated for 40 mins in presence of [gamma33P-ATP] by radiometric scintillation counting analysis
Sequence (P28482 whole entry): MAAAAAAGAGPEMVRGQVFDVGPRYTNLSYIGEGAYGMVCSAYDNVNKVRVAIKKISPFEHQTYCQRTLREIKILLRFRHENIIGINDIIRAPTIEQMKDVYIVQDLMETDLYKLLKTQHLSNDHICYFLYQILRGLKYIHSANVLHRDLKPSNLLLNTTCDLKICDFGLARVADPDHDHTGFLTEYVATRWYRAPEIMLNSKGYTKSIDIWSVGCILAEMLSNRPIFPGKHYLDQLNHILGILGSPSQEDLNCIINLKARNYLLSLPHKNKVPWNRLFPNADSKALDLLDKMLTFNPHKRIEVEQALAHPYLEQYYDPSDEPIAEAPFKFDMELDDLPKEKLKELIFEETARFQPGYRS
pIC50: −log10 of the molar value.
measured-metric: pIC50

Enquiry: Entry under review: Cc1ccc(NC(=O)c2ccc(C)c(C(F)(F)F)c2)cc1C#Cc1nn([C@H]2CC[C@H](O)CC2)c2ncnc(N)c12 . Reported pIC50?
Return: < 5.00

###

test: Toxicity in SCID mouse xenografted with MDA-MB-231 cells assessed as change in body weight at 40 mg/kg, po qd for 15 days and measured every 3 days; assay type: organism-based; settings: in vivo, 360 h, dose 40 mg/kg/day, time 15 day
Activity reference
Answer format: value, then unit.

Some molecules with known Activity results, for comparison:
                           molecular_string  observed_result
0  Cc1ccc(NC(=O)c2cccc(C(F)(F)F)c2)cc1C#Cc1nn(C[C@H](C)CO)c2ncnc(N)c12            -8.2%
1  Cc1ccc(C(=O)Nc2cccc(C(F)(F)F)c2)cc1C#Cc1nn(C2CCN(C)CC2)c2ncnc(N)c12           -13.2%
2  Cc1ccc(NC(=O)c2ccc(Cl)c(C(F)(F)F)c2)cc1C#Cc1nn([C@H]2CC[C@H](O)CC2)c2ncnc(N)c12           -13.4%
3  Cc1ccc(NC(=O)c2ccc(C)c(C(F)(F)F)c2)cc1C#Cc1nn(C[C@H](C)CO)c2ncnc(N)c12           -11.3%
4  Cc1ccc(NC(=O)c2ccc(C)c(C(F)(F)F)c2)cc1C#Cc1nn([C@H]2CC[C@H](O)CC2)c2ncnc(N)c12             3.4%

Enquiry: Entry under review: Cc1ccc(NC(=O)c2cccc(C(F)(F)F)c2)cc1C#Cc1nn(C[C@@H](C)CO)c2ncnc(N)c12 . Reported Activity?
Return: -3.2%

Enquiry: Entry under review: Cc1ccc(NC(=O)c2cccc(C(F)(F)F)c2)cc1C#Cc1nn([C@H]2CC[C@H](O)CC2)c2ncnc(N)c12 . Reported Activity?
Return: 3.1%

###

pIC50 reference
tested on: MDA-MB-435; test: Antiproliferative activity against human MDA-MB-435 cells assessed as reduction in cell viability incubated for 72 hrs by MTT assay; format: functional, cell-based; settings: MDA-MB-435, 72 h
Scale explanation: pIC50 corresponds to minus log10 of a concentration expressed in moles per litre.

                           molecular_string  subject_of_test  observed_result
0  Cc1ccc(NC(=O)c2cc(C(C)(C)C)nn2C)cc1C#Cc1nn(C2CCN(C)CC2)c2ncnc(N)c12       MDA-MB-435             7.10
1  Cc1ccc(NC(=O)c2ccc(C)c(C(F)(F)F)c2)cc1C#Cc1nn(C[C@H](C)CO)c2ncnc(N)c12       MDA-MB-435             7.21
2  Cc1ccc(NC(=O)c2ccc(Cl)cc2)cc1C#Cc1nn(C2CCN(C)CC2)c2ncnc(N)c12       MDA-MB-435             6.95
3  Cc1ccc(NC(=O)c2cccc(F)c2)cc1C#Cc1nn(C2CCN(C)CC2)c2ncnc(N)c12       MDA-MB-435             5.68
4  CCn1nc(C#Cc2cc(C(=O)Nc3cccc(C(F)(F)F)c3)ccc2C)c2c(N)ncnc21       MDA-MB-435             6.62
5  Cc1ccc(NC(=O)c2cc(C(C)(C)C)on2)cc1C#Cc1nn(C2CCN(C)CC2)c2ncnc(N)c12       MDA-MB-435             7.09

Next item in the queue.
Enquiry: Entry under review: CN1CCC(n2nc(C#Cc3cccc(NC(=O)c4cccc(C(F)(F)F)c4)c3)c3c(N)ncnc32)CC1 . Reported pIC50?
Return: 6.85

###

target: Voltage-gated inwardly rectifying potassium channel KCNH2 (Homo sapiens); test: Inhibition of human ERG expressed in CHO cells at -80 mV holding potential by automated Qpatch electrophysiological assay
Sequence (Q12809 whole entry): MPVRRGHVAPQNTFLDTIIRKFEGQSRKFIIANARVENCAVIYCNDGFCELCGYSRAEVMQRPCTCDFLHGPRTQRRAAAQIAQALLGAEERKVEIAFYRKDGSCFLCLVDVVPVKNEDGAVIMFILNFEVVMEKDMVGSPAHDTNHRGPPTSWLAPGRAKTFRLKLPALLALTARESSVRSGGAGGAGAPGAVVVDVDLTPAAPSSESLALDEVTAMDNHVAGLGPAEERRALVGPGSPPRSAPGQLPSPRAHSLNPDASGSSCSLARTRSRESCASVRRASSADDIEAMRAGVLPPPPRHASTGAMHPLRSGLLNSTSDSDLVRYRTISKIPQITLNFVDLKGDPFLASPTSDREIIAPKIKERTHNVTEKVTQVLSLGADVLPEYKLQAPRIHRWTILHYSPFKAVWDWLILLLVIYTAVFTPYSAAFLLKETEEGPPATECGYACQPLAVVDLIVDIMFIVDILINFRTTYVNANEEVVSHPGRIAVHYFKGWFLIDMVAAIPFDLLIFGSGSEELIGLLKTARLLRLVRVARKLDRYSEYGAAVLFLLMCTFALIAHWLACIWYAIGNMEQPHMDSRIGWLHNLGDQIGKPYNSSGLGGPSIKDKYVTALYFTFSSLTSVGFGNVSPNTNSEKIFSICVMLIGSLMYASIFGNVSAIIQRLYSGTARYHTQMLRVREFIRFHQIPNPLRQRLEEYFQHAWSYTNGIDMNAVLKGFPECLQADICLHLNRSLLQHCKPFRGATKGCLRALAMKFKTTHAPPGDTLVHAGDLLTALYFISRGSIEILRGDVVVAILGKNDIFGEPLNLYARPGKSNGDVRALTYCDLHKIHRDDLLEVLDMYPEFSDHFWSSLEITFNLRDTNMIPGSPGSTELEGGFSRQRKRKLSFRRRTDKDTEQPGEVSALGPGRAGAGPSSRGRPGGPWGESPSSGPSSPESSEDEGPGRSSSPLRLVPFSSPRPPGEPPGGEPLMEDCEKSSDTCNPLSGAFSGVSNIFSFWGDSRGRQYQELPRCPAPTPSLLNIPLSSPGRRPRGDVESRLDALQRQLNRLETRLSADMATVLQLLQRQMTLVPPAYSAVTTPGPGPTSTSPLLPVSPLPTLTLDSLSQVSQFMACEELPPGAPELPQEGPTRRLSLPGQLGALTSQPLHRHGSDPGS
pIC50: −log10 of the molar value.
pIC50 reference

Some molecules with known pIC50 results, for comparison:
In [3]: df
Out[3]:
                           molecular_string  observed_result
0  Cc1ccc(NC(=O)c2ccc(C)c(C(F)(F)F)c2)cc1C#Cc1nn(C[C@H](C)CO)c2ncnc(N)c12           < 4.52
1  Cc1ccc(NC(=O)c2ccc(Cl)c(C(F)(F)F)c2)cc1C#Cc1nn([C@H]2CC[C@H](O)CC2)c2ncnc(N)c12           < 4.52

Enquiry: Entry under review: Cc1ccc(NC(=O)c2cccc(C(F)(F)F)c2)cc1C#Cc1nn(C[C@H](C)CO)c2ncnc(N)c12 . Reported pIC50?
Return: < 4.52

Enquiry: Entry under review: Cc1ccc(NC(=O)c2ccc(Cl)c(C(F)(F)F)c2)cc1C#Cc1nn(C[C@H](C)CO)c2ncnc(N)c12 . Reported pIC50?
Return: < 4.52

Enquiry: Entry under review: Cc1ccc(NC(=O)c2cccc(C(F)(F)F)c2)cc1C#Cc1nn(C2CCN(C)CC2)c2ncnc(N)c12 . Reported pIC50?
Return: 6.22

Enquiry: Entry under review: Cc1ccc(NC(=O)c2cccc(C(F)(F)F)c2)cc1C#Cc1nn(C[C@@H](C)CO)c2ncnc(N)c12 . Reported pIC50?
Return: < 4.52
